Readings of EC-1 MIC for the listed molecules
# Tested on: EC-1, mouse virulent strain of Escherichia coli
# Format: cell-based
# TEST_CONTEXT: E. coli EC-1; overnight incubation, lower of duplicate values; trifluoroacetate salt (Example 1 and PMB sulfate)
Bridge positions count the residues as written; N and C are the ends. Square brackets hold non-standard residues; d marks the D form. Peptide text beside a SMILES is read from it. * marks the point of attachment. Isonicotinoyl(2-Ph) = O=C(c1ccnc(-c2ccccc2)c1)*; Benzoyl(4-OPh) = O=C(c1ccc(Oc2ccccc2)cc1)*; X18 = N#Cc1ccc(-c2cc(C(=O)*)ccc2C#N)cc1; X2 = N#Cc1ccc(-c2cc(C(=O)*)ccn2)cc1F; X22 = COc1cccc(-c2cc(C(=O)*)ccn2)c1; X29 = COc1cc(C(=O)*)cc(-c2ccccc2)c1; X34 = COc1ccc(-c2cc(C(=O)*)ccn2)cc1; X32 = N#Cc1cc(C(=O)*)ccc1-c1ccccc1; X11 = Cc1ccccc1-c1cccc(C(=O)*)c1; X27 = O=C(c1cncc(-c2ccccc2)c1)*; Dab = NCC[C@H](N)C(=O)O; Dap = NC[C@H](N)C(=O)O
Give just the number in µg/mL; leave the unit off.

Prompt: Entry under review: COc1cc(C(=O)N[C@@H](CCN)C(=O)N[C@H](C(=O)N[C@@H](CN)C(=O)N[C@H]2CCNC(=O)[C@H]([C@@H](C)O)NC(=O)[C@H](CCN)NC(=O)[C@H](CCN)NC(=O)[C@H](CC(C)C)NC(=O)[C@@H](Cc3ccccc3)NC(=O)[C@H](CCN)NC2=O)[C@@H](C)O)cc(-c2ccccc2)c1 [Example 17] (X29-[Dab]T[Dap][Dab][Dab][dF]L[Dab][Dab]T; lactam 4-C) . Reported EC-1 MIC?
Response: 0.25

Prompt: Entry under review: CC(C)C[C@@H]1NC(=O)[C@@H](Cc2ccccc2)NC(=O)[C@H](CCN)NC(=O)[C@@H](NC(=O)[C@H](CN)NC(=O)[C@@H](NC(=O)[C@H](CCN)NC(=O)c2cncc(-c3ccccc3)c2)[C@@H](C)O)CCNC(=O)[C@H]([C@@H](C)O)NC(=O)[C@H](CCN)NC(=O)[C@H](CCN)NC1=O [Example 30] (X27-[Dab]T[Dap][Dab][Dab][dF]L[Dab][Dab]T; lactam 4-C) . Reported EC-1 MIC?
Response: 0.125

Prompt: Entry under review: CC(C)C[C@@H]1NC(=O)[C@@H](Cc2ccccc2)NC(=O)[C@H](CCN)NC(=O)[C@@H](NC(=O)[C@H](CN)NC(=O)[C@@H](NC(=O)[C@H](CCN)NC(=O)c2ccc(-c3ccccc3)c(C#N)c2)[C@@H](C)O)CCNC(=O)[C@H]([C@@H](C)O)NC(=O)[C@H](CCN)NC(=O)[C@H](CCN)NC1=O [Example 8] (X32-[Dab]T[Dap][Dab][Dab][dF]L[Dab][Dab]T; lactam 4-C) . Reported EC-1 MIC?
Response: 0.5

Prompt: Entry under review: Cc1ccccc1-c1cccc(C(=O)N[C@@H](CCN)C(=O)N[C@H](C(=O)N[C@@H](CN)C(=O)N[C@H]2CCNC(=O)[C@H]([C@@H](C)O)NC(=O)[C@H](CCN)NC(=O)[C@H](CCN)NC(=O)[C@H](CC(C)C)NC(=O)[C@@H](Cc3ccccc3)NC(=O)[C@H](CCN)NC2=O)[C@@H](C)O)c1 [Example 21] (X11-[Dab]T[Dap][Dab][Dab][dF]L[Dab][Dab]T; lactam 4-C) . Reported EC-1 MIC?
Response: 0.25

Prompt: Entry under review: COc1cccc(-c2cc(C(=O)N[C@@H](CCN)C(=O)N[C@H](C(=O)N[C@@H](CN)C(=O)N[C@H]3CCNC(=O)[C@H]([C@@H](C)O)NC(=O)[C@H](CCN)NC(=O)[C@H](CCN)NC(=O)[C@H](CC(C)C)NC(=O)[C@@H](Cc4ccccc4)NC(=O)[C@H](CCN)NC3=O)[C@@H](C)O)ccn2)c1 [Example 29] (X22-[Dab]T[Dap][Dab][Dab][dF]L[Dab][Dab]T; lactam 4-C) . Reported EC-1 MIC?
Response: 0.5

Prompt: Entry under review: CC(C)C[C@@H]1NC(=O)[C@@H](Cc2ccccc2)NC(=O)[C@H](CCN)NC(=O)[C@@H](NC(=O)[C@H](CN)NC(=O)[C@@H](NC(=O)[C@H](CCN)NC(=O)c2ccc(Oc3ccccc3)cc2)[C@@H](C)O)CCNC(=O)[C@H]([C@@H](C)O)NC(=O)[C@H](CCN)NC(=O)[C@H](CCN)NC1=O [Example 42] ({Benzoyl(4-OPh)}-[Dab]T[Dap][Dab][Dab][dF]L[Dab][Dab]T; lactam 4-C) . Reported EC-1 MIC?
Response: 0.25

Prompt: Entry under review: CC(C)C[C@@H]1NC(=O)[C@@H](Cc2ccccc2)NC(=O)[C@H](CCN)NC(=O)[C@@H](NC(=O)[C@H](CN)NC(=O)[C@@H](NC(=O)[C@H](CCN)NC(=O)c2ccc(C#N)c(-c3ccc(C#N)cc3)c2)[C@@H](C)O)CCNC(=O)[C@H]([C@@H](C)O)NC(=O)[C@H](CCN)NC(=O)[C@H](CCN)NC1=O [Example 13] (X18-[Dab]T[Dap][Dab][Dab][dF]L[Dab][Dab]T; lactam 4-C) . Reported EC-1 MIC?
Response: 0.25

Prompt: Entry under review: CC(C)C[C@@H]1NC(=O)[C@@H](Cc2ccccc2)NC(=O)[C@H](CCN)NC(=O)[C@@H](NC(=O)[C@H](CN)NC(=O)[C@H](CO)NC(=O)[C@H](CCN)NC(=O)c2ccnc(-c3ccccc3)c2)CCNC(=O)[C@H]([C@@H](C)O)NC(=O)[C@H](CCN)NC(=O)[C@H](CCN)NC1=O [Example 46] ({Isonicotinoyl(2-Ph)}-[Dab]S[Dap][Dab][Dab][dF]L[Dab][Dab]T; lactam 4-C) . Reported EC-1 MIC?
Response: 0.25

Prompt: Entry under review: COc1ccc(-c2cc(C(=O)N[C@@H](CCN)C(=O)N[C@H](C(=O)N[C@@H](CN)C(=O)N[C@H]3CCNC(=O)[C@H]([C@@H](C)O)NC(=O)[C@H](CCN)NC(=O)[C@H](CCN)NC(=O)[C@H](CC(C)C)NC(=O)[C@@H](Cc4ccccc4)NC(=O)[C@H](CCN)NC3=O)[C@@H](C)O)ccn2)cc1 [Example 22] (X34-[Dab]T[Dap][Dab][Dab][dF]L[Dab][Dab]T; lactam 4-C) . Reported EC-1 MIC?
Response: 0.25

***
Prompt: Entry under review: CC(C)C[C@@H]1NC(=O)[C@@H](Cc2ccccc2)NC(=O)[C@H](CCN)NC(=O)[C@@H](NC(=O)[C@H](CN)NC(=O)[C@@H](NC(=O)[C@H](CCN)NC(=O)c2ccnc(-c3ccc(C#N)c(F)c3)c2)[C@@H](C)O)CCNC(=O)[C@H]([C@@H](C)O)NC(=O)[C@H](CCN)NC(=O)[C@H](CCN)NC1=O [Example 31] (X2-[Dab]T[Dap][Dab][Dab][dF]L[Dab][Dab]T; lactam 4-C) . Reported EC-1 MIC?
Response: 0.5
